Assay: Solubility of the compound in simulated intestinal fluid
Assay type: physicochemical
Items are presented alongside their recorded solubility.
Parameter: solubility

| Smiles Record | Reported Value |
| --- | --- |
| Cc1cc(NC(=O)N2CCC3(CCN(C(=O)c4c(F)cccc4F)CC3)C2)ccc1Cl | 21 µg/mL |
| O=C(Nc1ccc(OC(F)(F)F)cc1)N1CCC2(CCN(C(=O)c3ccccc3F)CC2)C1 | 47 µg/mL |
| CC(C)(C)C(=O)N1CCC2(CCN(C(=O)Nc3ccc(OC(F)(F)F)cc3)C2)CC1 | 75 µg/mL |
| Cc1cc(C(=O)N2CCC3(CCN(C(=O)Nc4ccc(OC(F)(F)F)cc4)C3)CC2)no1 | 80 µg/mL |
| O=C(Nc1ccc(OC(F)(F)F)cc1)N1CCC2(CCN(C(=O)c3cc(O)ccc3F)CC2)C1 | 35 µg/mL |
| O=C(Nc1ccc(Cl)c(C(F)(F)F)c1)N1CCC2(CCN(C(=O)c3c(F)cccc3F)CC2)C1 | 4 µg/mL |
| O=C(Nc1ccc(OC(F)(F)F)cc1)N1CCC2(CCN(C(=O)c3c(F)cccc3F)CC2)C1 | 21 µg/mL |
| O=C(Nc1ccc(Cl)cc1)N1CCC2(CCN(C(=O)c3c(F)cccc3F)CC2)C1 | 64 µg/mL |
| O=C(CC1CC1)N1CCC2(CC1)CCN(C(=O)Nc1ccc(OC(F)(F)F)cc1)C2 | 74 µg/mL |
